Measurement Target: PRMT5 (Homo sapiens, UniProt O14744)
Construct: purchased Viva (custom protein)
Sequence (O14744 whole entry): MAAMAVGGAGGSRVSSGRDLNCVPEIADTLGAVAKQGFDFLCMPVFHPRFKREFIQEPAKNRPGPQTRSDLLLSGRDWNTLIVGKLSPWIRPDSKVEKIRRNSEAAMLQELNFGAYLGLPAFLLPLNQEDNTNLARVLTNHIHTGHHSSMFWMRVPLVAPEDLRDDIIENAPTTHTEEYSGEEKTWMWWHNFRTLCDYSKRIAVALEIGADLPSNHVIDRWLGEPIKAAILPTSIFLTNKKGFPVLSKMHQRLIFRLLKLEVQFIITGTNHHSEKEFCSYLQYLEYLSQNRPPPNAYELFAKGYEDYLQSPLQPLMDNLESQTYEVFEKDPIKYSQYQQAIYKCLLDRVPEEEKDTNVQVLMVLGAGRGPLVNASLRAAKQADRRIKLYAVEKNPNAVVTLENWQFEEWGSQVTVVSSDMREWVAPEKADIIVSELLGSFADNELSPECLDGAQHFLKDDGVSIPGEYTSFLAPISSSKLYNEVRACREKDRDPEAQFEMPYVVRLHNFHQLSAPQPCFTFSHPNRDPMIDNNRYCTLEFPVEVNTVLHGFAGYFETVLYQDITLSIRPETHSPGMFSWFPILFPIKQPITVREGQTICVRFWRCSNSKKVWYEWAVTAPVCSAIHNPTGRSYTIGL
Sequence (Q9BQA1 whole entry partner): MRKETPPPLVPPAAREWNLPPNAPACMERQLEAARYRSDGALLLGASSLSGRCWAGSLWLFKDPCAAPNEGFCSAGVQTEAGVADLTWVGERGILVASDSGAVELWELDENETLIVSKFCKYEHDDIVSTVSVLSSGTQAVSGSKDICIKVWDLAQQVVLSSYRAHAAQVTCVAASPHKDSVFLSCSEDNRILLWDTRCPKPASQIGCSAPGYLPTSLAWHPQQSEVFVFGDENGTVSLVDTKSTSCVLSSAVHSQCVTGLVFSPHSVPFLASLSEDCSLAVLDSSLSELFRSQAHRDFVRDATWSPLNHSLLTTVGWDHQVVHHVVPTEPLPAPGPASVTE
Measurement Notes: PRMT5 biochemical IC50 assay with MTA as cofactor
Measurement Setup: PRMT5, MTA as cofactor; read-out: MTA IC50
Task for the reader: assign each of the following compounds its reported IC50.

Cc1cc(NC(=O)C(=O)N2C[C@H](C)CC[C@H]2c2cccc(S(C)(=O)=O)c2)cnc1N (single isomer, unassigned) [Compound 895]: < 50 nM

Consider the following items and state reported IC50 for each.
1. COc1ncc(NC(=O)C(=O)N2C[C@H](C)CC[C@H]2c2ccc(C)nc2)cc1C(N)=O (single isomer, unassigned)
2. CCc1cc(NC(=O)C(=O)N2C[C@@H](C)CC[C@@H]2c2ccc3sc(C4CC(C)(C)N(C)C(C)(C)C4)nc3c2)cnc1N
3. C[C@@H]1CC[C@@H](c2cc3[nH]ncc3s2)N(C(=O)C(=O)Nc2cncc(C(N)=O)c2)C1 (single isomer, unassigned)
4. [H][C@@]1([C@]2([H])C[C@@]3(C[C@H](O)C3)C2)CC[C@@H](C)CN1C(=O)C(=O)Nc1cnc(N)c(C)c1 (mixture of isomers) [Compound 711]
5. C[C@@H]1CC[C@@H](c2ccc(-c3nccs3)cc2)N(C(=O)C(=O)Nc2cncc(C(N)=O)c2)C1 (single isomer, unassigned)
6. Cc1ccc([C@@H]2CC[C@@H](C)CN2C(=O)C(=O)Nc2cncc(C(N)=O)c2)cc1O (racemic)
7. CCc1cc(NC(=O)C(=O)N2C[C@@H](C)CC[C@@H]2c2cccc([C@H]3CCN(C)C3)c2)cnc1N

["< 50 nM", "< 50 nM", "> 500 nM", "50 to 500 nM", "< 50 nM", "< 50 nM", "< 50 nM"]

Consider the following items and state reported IC50 for each.
1. C[C@@H]1CC[C@@H](c2ccc(Cl)cc2)N(C(=O)C(=O)Nc2cncc(C(N)=O)c2)C1 (racemic) [Compound 212]
2. Cc1cc(NC(=O)C(=O)N2C[C@@H](C)CC[C@@H]2c2ccc3c(=O)[nH]ccc3c2)cnc1N (single isomer, unassigned)

["< 50 nM", "< 50 nM"]

Consider the following items and state reported IC50 for each.
1. NC(=O)c1cncc(NC(=O)C(=O)N2CCC3(CCCCC3)CC2)c1
2. Cc1cc(NC(=O)C(=O)N2CCCCC2c2csc3ccccc23)cnc1N (centres unmarked)

1: < 50 nM; 2: < 50 nM

Consider the following items and state reported IC50 for each.
1. C[C@@H]1CC[C@@H](c2ccccc2C#N)N(C(=O)C(=O)Nc2cncc(C(N)=O)c2)C1 (racemic)
2. CNS(=O)(=O)c1cccc([C@@H]2CC[C@@H](C)CN2C(=O)C(=O)Nc2cncc(C(N)=O)c2)c1 (racemic)

1: 50 to 500 nM; 2: < 50 nM

Consider the following items and state reported IC50 for each.
1. Cc1cc(NC(=O)C(=O)N2C[C@@H](C)CC[C@@H]2c2ccc(-c3nccs3)cc2)cnc1N (single isomer, unassigned)
2. Cc1cc(NC(=O)C(=O)N2C[C@H](C)CC[C@H]2c2ccc3[nH]c(N)nc3c2)cnc1C (racemic)
3. Cc1cc(NC(=O)C(=O)N2C[C@H](C)CC[C@H]2c2cccc(N3CCN(C)CC3)c2)cnc1N (racemic) [Compound 1223]
4. CC1CCC2CCCCC2N1C(=O)C(=O)Nc1cncc(C(N)=O)c1 (centres unmarked)
5. CCc1cc(NC(=O)C(=O)N2C[C@@H](C)CC[C@@H]2c2ccc3sc(CCN4CCOCC4)nc3c2)cnc1N

< 50 nM
< 50 nM
< 50 nM
< 50 nM
< 50 nM

Consider the following items and state reported IC50 for each.
1. C[C@@H]1CC[C@@H](c2ccc(N[C@@H]3CCN(C)C3=O)cc2)N(C(=O)C(=O)Nc2cncc(C(N)=O)c2)C1 (racemic)
2. C[C@@H]1CC[C@@H](c2ccc3c(c2)OCC3)N(C(=O)C(=O)Nc2cncc(C(N)=O)c2)C1 (racemic)
3. C[C@@H]1CN(C(=O)C(=O)Nc2cncc(C(N)=O)c2)[C@@H](c2ccc(F)cc2)CC1(F)F (single isomer, unassigned)
4. CCc1cc(NC(=O)C(=O)N2C[C@@H](C)CC[C@@H]2c2ccc3sc([C@H]4C[C@@H](C)N(C)[C@@H](C)C4)nc3c2)cnc1N
5. Cc1cc(NC(=O)C(=O)N2C[C@H](C)CC[C@H]2c2cccc3[nH]ncc23)cnc1N (single isomer, unassigned) [Compound 785]
6. CC[C@@H]1CCN(C(=O)C(=O)Nc2cncc(C(N)=O)c2)[C@H](c2ccccc2)C1 (racemic)
7. C[C@@H]1CC[C@@H](c2ccc3c(c2)C[C@@H](C)O3)N(C(=O)C(=O)Nc2cncc(C(N)=O)c2)C1 (single isomer, unassigned)

1. 50 to 500 nM
2. 50 to 500 nM
3. > 500 nM
4. < 50 nM
5. < 50 nM
6. < 50 nM
7. < 50 nM

---

Task for the reader: assign each of the following compounds its reported IC50.
Measurement Target: PRMT5 (Homo sapiens)
Construct: purchased Viva (custom protein)
Measurement Notes: PRMT5 biochemical IC50 assay with SAM as cofactor
Measurement Setup: PRMT5, SAM as cofactor; read-out: SAM IC50

CCc1cc(NC(=O)C(=O)N2C[C@H](C)CC[C@H]2c2ccc3[nH]cnc3c2)cnc1N (single isomer, unassigned): > 500 nM
COc1ncc(NC(=O)C(=O)N2C[C@H](C)CC[C@H]2c2ccc(-c3nccs3)cc2)cc1C(N)=O (single isomer, unassigned): > 500 nM
COc1ncc(NC(=O)C(=O)N2C[C@@H](C)CC[C@@H]2C2CCCCC2)cc1C(N)=O (single isomer, unassigned): 50 to 500 nM
C[C@H]1CC[C@H](c2ccc(Cl)c(Cl)c2)N(C(=O)C(=O)Nc2cncc(C(N)=O)c2)C1 (single isomer, unassigned): 50 to 500 nM
Cc1cc(NC(=O)C(=O)N2C[C@@H](C)CC[C@@H]2c2cc(F)cc(Cl)c2)cnc1N (single isomer, unassigned): > 500 nM
CCc1cc(NC(=O)C(=O)N2C[C@@H](C)CC[C@@H]2c2ccc(C)nc2)cnc1N (single isomer, unassigned): 50 to 500 nM
C[C@H]1CC[C@H]([C@H]2CC[C@H](O)CC2)N(C(=O)C(=O)Nc2cncc(C(N)=O)c2)C1 (single isomer, unassigned): 50 to 500 nM
CCc1cc(NC(=O)C(=O)N2C[C@@H](C)CC[C@@H]2c2ccc3sc(N4CCOCC4)nc3c2)cnc1N: 50 to 500 nM
CNc1nc2cc([C@@H]3CC[C@@H](C)CN3C(=O)C(=O)Nc3cnc(C)c(C)c3)ccc2s1 (racemic): 50 to 500 nM
Cc1cc([C@@H]2CC[C@@H](C)CN2C(=O)C(=O)Nc2cncc(C(N)=O)c2)ccc1F (single isomer, unassigned) [Compound 307]: > 500 nM

Consider the following items and state reported IC50 for each.
1. C[C@H]1CC[C@H](c2ccccn2)N(C(=O)C(=O)Nc2cncc(C(N)=O)c2)C1 (single isomer, unassigned)
2. Cc1cc(NC(=O)C(=O)N2C[C@H](C)[C@@H](C)C[C@@H]2c2ccccc2)cnc1N (single isomer, unassigned)

["< 50 nM", "> 500 nM"]

---

Measurement Target: PRMT5 (Homo sapiens, UniProt O14744)
Construct: purchased Viva (custom protein)
Measurement Notes: PRMT5 biochemical IC50 assay with MTA as cofactor
Measurement Setup: PRMT5, MTA as cofactor; read-out: MTA IC50
Task for the reader: assign each of the following molecules its reported IC50.

Consider the following items and state reported IC50 for each.
1. CO[C@H]1C[C@H](c2ccc3scnc3c2)N(C(=O)C(=O)Nc2cncc(C(N)=O)c2)C[C@H]1C (single isomer, unassigned)
2. Cc1cc(NC(=O)C(=O)N2C[C@@H](C)CC[C@@H]2c2cc3[nH]ncc3s2)cnc1N (single isomer, unassigned)
3. Cc1ncc(NC(=O)C(=O)N2C[C@H](C)CC[C@H]2c2ccc3c(c2)CCC(=O)N3)cc1C(F)F (racemic) [Compound 803]
4. CCOc1ncc(NC(=O)C(=O)N2C[C@H](C)CC[C@H]2c2ccccc2)cc1C(N)=O (single isomer, unassigned)
5. CC(=O)Nc1ccc([C@@H]2CC[C@@H](C)CN2C(=O)C(=O)Nc2cncc(C(N)=O)c2)cc1 (single isomer, unassigned)
6. C[C@@H]1CC[C@@H](c2ccc3sc(N)nc3c2)N(C(=O)C(=O)Nc2cncc(C(N)=O)c2)C1 (single isomer, unassigned)
7. COc1ncc(NC(=O)C(=O)N2C[C@H](C)CC[C@H]2c2cc3cn[nH]c3s2)cc1C(N)=O (single isomer, unassigned)
8. CCc1cc(NC(=O)C(=O)N2C[C@@H](C)CC[C@@H]2c2ccc3nn([C@H]4CCCN(C)C4)cc3c2)cnc1N (single isomer, unassigned)

1. 50 to 500 nM
2. < 50 nM
3. < 50 nM
4. > 500 nM
5. < 50 nM
6. > 500 nM
7. > 500 nM
8. < 50 nM

Consider the following items and state reported IC50 for each.
1. C[C@@H]1CC[C@@H](c2ccc(F)cc2)N(C(=O)C(=O)Nc2cnc(N)c(C(F)(F)F)c2)C1 (racemic)
2. C[C@@H]1CC[C@H](c2ccc(N[C@@H]3CCN(C)C3=O)cc2)N(C(=O)C(=O)Nc2cncc(C(N)=O)c2)C1 (racemic)
3. Cc1ncc(NC(=O)C(=O)N2C[C@@H](C)CC[C@@H]2c2ccc3sc(C4CCN(C)CC4)nc3c2)cc1C1COC1

1: 50 to 500 nM; 2: 50 to 500 nM; 3: < 50 nM

Provide value of IC50 for this record tested with PRMT5 (Homo sapiens, UniProt O14744): N#C[C@@H]1CCN(C(=O)C(=O)Nc2cncc(C(N)=O)c2)[C@H](c2ccccc2)C1 (single isomer, unassigned) > 500 nM

All values here come from patent US11999727B2.
